System: Histone deacetylase (HDAC1 and HDAC2) (Homo sapiens, UniProt Q13547+Q92769)
Method Notes: Inhibition of HDAC1/HDAC2 in human HeLa cell extract incubated for 5 mins prior to substrate addition measured after 30 mins by microtitre plate reader analysis
Type: cell-based
Below, each entry is listed alongside its reported IC50.

Smiles Text: O=C(CCCCCC(=O)Nc1nnc(-c2cccs2)s1)NO
Unit Name: nM
Comparator: =
IC50: 411
--
Smiles Text: O=C(CCCCCC(=O)Nc1nnc(-c2ccc(Cl)cc2)s1)NO
Unit Name: nM
Comparator: =
IC50: 988
--
Smiles Text: CS(=O)(=O)c1ccc(-c2nnc(NC(=O)CCCCCC(=O)NO)s2)cc1
Unit Name: nM
Comparator: =
IC50: 721
--
Smiles Text: O=C(CCCCCCC(=O)Nc1nnc(-c2cccc3ccccc23)s1)NO
Unit Name: nM
Comparator: >
IC50: 5000
--
Smiles Text: O=C(CCCCCC(=O)Nc1nnc(-c2ccc([N+](=O)[O-])cc2)s1)NO
Unit Name: nM
Comparator: =
IC50: 709
--
Smiles Text: O=C(CCCCCC(=O)Nc1nnc(-c2ccco2)s1)NO
Unit Name: nM
Comparator: =
IC50: 434
--
Smiles Text: COc1ccc(-c2nnc(NC(=O)CCCCCC(=O)NO)s2)cc1OC
Unit Name: nM
Comparator: =
IC50: 487
--
Smiles Text: CS(=O)(=O)c1ccc(-c2nnc(NC(=O)CCCCCCC(=O)NO)s2)cc1
Unit Name: nM
Comparator: =
IC50: 598
--
Smiles Text: O=C(CCCCCC(=O)Nc1nnc(-c2ccc3ccccc3c2)s1)NO
Unit Name: nM
Comparator: >
IC50: 5000
--
Smiles Text: O=C(CCCCCC(=O)Nc1nnc(-c2ccncc2)s1)NO
Unit Name: nM
Comparator: =
IC50: 411
--
Smiles Text: O=C(CCCCCC(=O)Nc1nnc(-c2cccc(Cl)c2)s1)NO
Unit Name: nM
Comparator: =
IC50: 847

###

Below, each entry is listed alongside its reported IC50.
System: Histone deacetylase (HDAC1 and HDAC2) (Homo sapiens, UniProt Q13547+Q92769)
Method Notes: Inhibition of HDAC1/HDAC2 in human HeLa cell extract incubated for 5 mins prior to substrate addition measured after 30 mins by microtitre plate reader analysis
Format: cell-based
Measurement Label: IC50 (nM)

Smiles Text: O=C(CCCCCC(=O)Nc1nnc(-c2ccc(Br)cc2)s1)NO
Comparator: =
Assay Result: 1285
//
Smiles Text: O=C(CCCCCCC(=O)Nc1nnc(-c2ccc(N3CCOCC3)cc2)s1)NO
Comparator: >
Assay Result: 5000
//
Smiles Text: O=C(CCCCCC(=O)Nc1nnc(-c2ccc(I)cc2)s1)NO
Comparator: =
Assay Result: 875
//
Smiles Text: O=C(CCCCCCC(=O)Nc1nnc(-c2ccc3ccccc3c2)s1)NO
Comparator: >
Assay Result: 5000
//
Smiles Text: O=C(CCCCCCC(=O)Nc1nnc(-c2cccs2)s1)NO
Comparator: =
Assay Result: 310
//
Smiles Text: Cc1ccc(-c2nnc(NC(=O)CCCCCC(=O)NO)s2)cc1
Comparator: =
Assay Result: 422
//
Smiles Text: CN(C)c1ccc(-c2nnc(NC(=O)CCCCCC(=O)NO)s2)cc1
Comparator: >
Assay Result: 5000
//
Smiles Text: O=C(CCCCCCC(=O)Nc1nnc(-c2cccnc2)s1)NO
Comparator: =
Assay Result: 386
//
Smiles Text: O=C(CCCCCCC(=O)Nc1nnc(-c2ccc(C(F)(F)F)cc2)s1)NO
Comparator: >
Assay Result: 5000
//
Smiles Text: O=C(CCCCCC(=O)Nc1nnc(-c2cccnc2)s1)NO
Comparator: =
Assay Result: 325
//
Smiles Text: O=C(CCCCCC(=O)Nc1nnc(-c2ccc(C(F)(F)F)cc2)s1)NO
Comparator: =
Assay Result: 1154
//
Smiles Text: O=C(CCCCCCC(=O)Nc1nnc(-c2ccc(I)cc2)s1)NO
Comparator: >
Assay Result: 5000
//
Smiles Text: O=C(CCCCCCC(=O)Nc1nnc(-c2ccco2)s1)NO
Comparator: =
Assay Result: 436
//
Smiles Text: O=C(CCCCCC(=O)Nc1nnc(-c2ccc(-c3ccccc3)cc2)s1)NO
Comparator: >
Assay Result: 5000
//
Smiles Text: O=C(CCCCCC(=O)Nc1nnc(-c2ccccc2Cl)s1)NO
Comparator: =
Assay Result: 507
//
Smiles Text: COc1ccc(-c2nnc(NC(=O)CCCCCC(=O)NO)s2)cc1
Comparator: =
Assay Result: 437
//
Smiles Text: O=C(CCCCCCC(=O)Nc1nnc(-c2ccncc2)s1)NO
Comparator: =
Assay Result: 286
//
Smiles Text: O=C(CCCCCCC(=O)Nc1nnc(-c2ccc(-c3ccccc3)cc2)s1)NO
Comparator: >
Assay Result: 5000
//
Smiles Text: O=C(CCCCCCC(=O)Nc1nnc(-c2cccc(Br)c2)s1)NO
Comparator: =
Assay Result: 1215
//
Smiles Text: O=C(CCCCCC(=O)Nc1nnc(-c2ccc(F)cc2)s1)NO
Comparator: =
Assay Result: 741
//
Smiles Text: O=C(CCCCCC(=O)Nc1nnc(-c2cccc3ccccc23)s1)NO
Comparator: =
Assay Result: 3186
//
Smiles Text: O=C(CCCCCC(=O)Nc1nnc(-c2ccc(N3CCOCC3)cc2)s1)NO
Comparator: >
Assay Result: 5000
//
Smiles Text: O=C(CCCCCCC(=O)Nc1nnc(-c2ccccc2Br)s1)NO
Comparator: =
Assay Result: 526
